System: Plasmodium berghei
experiment: Screen against P. berghei liver stage (PbLuc), transformed with Luciferase, at 10uM
Assay type: functional, HepG2
setupConditions: tested at 10 uM
Among all 69,000 compounds or so, about 8,600 (12%) showed an effect of 50% or more. The full list was thinned out, with strong results kept by preference.
Binary call on INHIBITION: label 1 from 20% upward, label 0 beneath that.

INHIBITION >= 20% for COc1cccc(NC(=O)Cn2cc(-c3ccccc3)ncc2=O)c1 ?
label 1

INHIBITION >= 20% for Cc1ccc(CN(C)CC2(O)CCCN(C)C2)o1 (stereo not drawn) ?
label 0

INHIBITION >= 20% for CCc1nc2c(N3CCC4(CC3)CC(=O)N(CC)C4)ncnc2o1 ?
label 1

INHIBITION >= 20% for O=C([C@@H]1C[C@H]2[C@H](CCN2Cc2nccs2)O1)N1CCOCC1 ?
label 0

INHIBITION >= 20% for Cc1ccc(O[C@@H]2C[C@H]3CN(Cc4nccn4C)CCN3C2)cc1 ?
label 0

INHIBITION >= 20% for Fc1cnc(N2CCN3C[C@H](Oc4cncnc4)C[C@H]3C2)nc1 ?
label 1

INHIBITION >= 20% for c1cnc(N2CCN3C[C@H](Oc4cncnc4)C[C@H]3C2)nc1 ?
label 1

INHIBITION >= 20% for Cc1ncsc1CN1CC[C@H]2OCC[C@@]2(C(=O)NC2CC2)C1 ?
label 0

INHIBITION >= 20% for CCOc1cccc(CNC2CCCN(Cc3noc(C)n3)C2)c1 (stereo not drawn) ?
label 1

INHIBITION >= 20% for Cc1nn(C)c(C)c1S(=O)(=O)NCC1(C(N)=O)CCOCC1 ?
label 1

INHIBITION >= 20% for CC(C)N1CCN(c2ccc3ccc(C(=O)NC4CCCC4)cn23)CC1 ?
label 0

INHIBITION >= 20% for O=C(c1cnccn1)N1CCN2C[C@H](Oc3cccnc3)C[C@H]2C1 ?
label 0

INHIBITION >= 20% for CCc1nc2c(N3CCC4(CC3)CC(=O)N(CC(C)C)C4)ncnc2o1 ?
label 1

INHIBITION >= 20% for Cc1ccccc1CC1(C(=O)O)CCCN(c2ncccn2)C1 (stereo not drawn) ?
label 0

INHIBITION >= 20% for CCc1nc2c(N3CCC4(CC3)CNC(=O)C4)ncnc2o1 ?
label 0

INHIBITION >= 20% for Cn1cc(CN2CCCC3(CCN(c4nncs4)C3)C2)cn1 (stereo not drawn) ?
label 1

INHIBITION >= 20% for Cc1cnc(N2CCN3C[C@H](OCc4ccccn4)C[C@H]3C2)nc1 ?
label 1

INHIBITION >= 20% for O=C(CCc1ccc(Cl)s1)NCc1nnc2n1CCCCC2 ?
label 0

INHIBITION >= 20% for Cc1nn(C)c(C)c1CC(=O)NCC1(C(N)=O)CCOCC1 ?
label 1

INHIBITION >= 20% for Cn1ccnc1CN1CCN2C[C@H](Oc3cncnc3)C[C@H]2C1 ?
label 0

INHIBITION >= 20% for CCCc1cc(=O)[nH]c(-c2ccccc2CN(C)CCn2cccn2)n1 ?
label 0

INHIBITION >= 20% for Cc1nc(CN2CCN3C[C@H](Oc4cncnc4)C[C@H]3C2)cs1 ?
label 1
